molecular target: Steroid 17-alpha-hydroxylase/17,20 lyase (Rattus norvegicus, UniProt P11715); experiment: Selectivity index, ratio of IC50 for 17-alpha-hydroxylase activity of rat testicular microsomal P450-17alpha to IC50 for 17,20-lyase activity of rat testicular microsomal P450-17alpha
property_label: Ratio IC50

Cc1ccc(S(=O)(=O)Oc2ccc(Cn3ccnc3)cc2)cc1 ... 109.4
O=S(=O)(Oc1ccc(Cn2ccnc2)cc1)c1ccc(Cl)cc1 ... 69.9
COc1ccc(S(=O)(=O)Oc2ccc(Cn3ccnc3)cc2)cc1 ... 60

Asked: Name the recorded Ratio IC50 for `O=[N+]([O-])c1ccc(S(=O)(=O)Oc2ccc(Cn3ccnc3)cc2)cc1` .
Given back: 80.9

Asked: Please look up its Ratio IC50: `Ic1ccc(Cn2ccnc2)cc1`
Given back: 6.4

Asked: What Ratio IC50 value was documented for this molecule, CC(=O)N1CCN(c2ccc(OCC3COC(Cn4ccnc4)(c4ccc(Cl)cc4Cl)O3)cc2)CC1 (stereo not given) [KETOCONAZOLE] ?
Given back: 2.3

Asked: So what's the measured Ratio IC50 for this one? `O=S(=O)(Oc1ccc(Cn2ccnc2)cc1)c1ccc(C(F)(F)F)cc1`
Given back: 223.8

Asked: For the molecule shown here, `O=S(=O)(Oc1ccc(Cn2ccnc2)cc1)c1ccc(Br)cc1` , give the reported Ratio IC50.
Given back: 34.6

Asked: Field request: Ratio IC50 | item: `O=S(=O)(Oc1ccc(Cn2ccnc2)cc1)c1ccc(F)cc1`
Given back: 75.9

Asked: Quick one: Ratio IC50 for `O=S(=O)(Oc1ccc(Cn2ccnc2)cc1)c1ccc(I)cc1` ?
Given back: 100.1

###

Target: Steroid 17-alpha-hydroxylase/17,20 lyase (Rattus norvegicus, UniProt P11715)
Sequence (P11715 whole entry): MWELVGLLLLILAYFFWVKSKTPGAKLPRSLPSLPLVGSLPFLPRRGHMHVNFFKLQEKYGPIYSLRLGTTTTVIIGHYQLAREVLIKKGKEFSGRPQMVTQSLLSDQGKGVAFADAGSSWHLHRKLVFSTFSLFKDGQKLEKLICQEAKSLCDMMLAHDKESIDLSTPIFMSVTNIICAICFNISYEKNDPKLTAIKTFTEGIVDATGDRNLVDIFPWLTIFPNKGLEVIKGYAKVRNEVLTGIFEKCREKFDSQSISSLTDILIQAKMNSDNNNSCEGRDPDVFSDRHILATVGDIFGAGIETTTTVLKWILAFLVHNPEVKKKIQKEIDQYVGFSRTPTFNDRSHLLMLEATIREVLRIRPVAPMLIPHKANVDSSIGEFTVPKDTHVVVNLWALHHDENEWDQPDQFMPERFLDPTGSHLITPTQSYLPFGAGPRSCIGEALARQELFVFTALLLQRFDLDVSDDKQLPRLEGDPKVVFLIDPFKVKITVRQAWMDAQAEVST
Assay: Inhibition of 17,20-lyase activity of rat testicular microsomal P450-17alpha
IC50 values, listed per item
Give a bare numeral; the unit µM is implied.

Asked: Recorded IC50 for `COc1ccc(S(=O)(=O)Oc2ccc(Cn3ccnc3)cc2)cc1` , please?
Given back: 0.101

Asked: Entry under review: `O=S(=O)(Oc1ccc(Cn2ccnc2)cc1)c1ccc(Br)cc1` . Reported IC50?
Given back: 0.0704

Asked: Entry `O=S(=O)(Oc1ccc(Cn2ccnc2)cc1)c1ccc(F)cc1` : reported IC50 = ?
Given back: 0.21

###

The following compounds are shown together with reported IC50 values.
Target: Aromatase (Homo sapiens)
Sequence (P11511 whole entry): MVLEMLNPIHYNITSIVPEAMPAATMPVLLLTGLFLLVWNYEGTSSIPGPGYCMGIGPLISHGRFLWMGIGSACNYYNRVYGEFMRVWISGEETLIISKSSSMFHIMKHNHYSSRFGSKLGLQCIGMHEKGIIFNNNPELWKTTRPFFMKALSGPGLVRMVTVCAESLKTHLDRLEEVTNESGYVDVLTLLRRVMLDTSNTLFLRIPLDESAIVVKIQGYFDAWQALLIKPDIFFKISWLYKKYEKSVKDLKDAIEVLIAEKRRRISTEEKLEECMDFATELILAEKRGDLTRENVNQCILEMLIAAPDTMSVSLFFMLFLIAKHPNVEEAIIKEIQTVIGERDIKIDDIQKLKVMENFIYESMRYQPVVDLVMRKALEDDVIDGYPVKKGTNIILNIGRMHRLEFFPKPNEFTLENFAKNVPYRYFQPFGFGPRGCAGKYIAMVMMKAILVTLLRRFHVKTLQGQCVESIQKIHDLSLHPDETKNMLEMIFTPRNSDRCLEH
Lab book: enter the figure in µM, no units written.

Consider the following illustrative entries.
Clc1ccc(Cn2ccnc2)cc1 ... 0.07
Cc1ccc(Cn2ccnc2)cc1 ... 24.5

Asked: I am curious: what IC50 value has been reported for `N#CC(C#N)=Cc1ccc(O)c(O)c1` ?
Given back: 70.6

Asked: Query: IC50; subject: `Fc1ccc(Cn2ccnc2)cc1`
Given back: 0.88

###

molecular target: Steroid 17-alpha-hydroxylase/17,20 lyase (Rattus norvegicus); assay: Inhibition of 17-alpha-hydroxylase activity of rat testicular microsomal P450-17alpha
# IC50 values compiled below
Quick reminder: number only, in µM, skip the unit.

COc1ccc(S(=O)(=O)Oc2ccc(Cn3ccnc3)cc2)cc1 ... 6

Asked: Name the recorded IC50 for `O=S(=O)(Oc1ccc(Cn2ccnc2)cc1)c1ccc(C(F)(F)F)cc1` .
Given back: 64.9

Asked: Suppose we examine the compound `O=S(=O)(Oc1ccc(Cn2ccnc2)cc1)c1ccc(Cl)cc1` ; what IC50 value has been reported?
Given back: 6.85

Asked: For `O=S(=O)(Oc1ccc(Cn2ccnc2)cc1)c1ccc(I)cc1` , what is its reported IC50?
Given back: 10

Asked: For the compound `O=[N+]([O-])c1ccc(S(=O)(=O)Oc2ccc(Cn3ccnc3)cc2)cc1` , what IC50 is on record?
Given back: 6.88

Asked: Could you share which IC50 value was measured for `Cc1ccc(S(=O)(=O)Oc2ccc(Cn3ccnc3)cc2)cc1` ?
Given back: 25.2

Asked: Quick one: IC50 of `O=S(=O)(Oc1ccc(Cn2ccnc2)cc1)c1ccc(Br)cc1` ?
Given back: 4.84

Asked: Looking for the measured IC50 of `O=S(=O)(Oc1ccc(Cn2ccnc2)cc1)c1ccc(F)cc1` , can you help?
Given back: 15.9

###

target: Steroid 17-alpha-hydroxylase/17,20 lyase (Rattus norvegicus); assay: Inhibition of 17,20-lyase activity of rat testicular microsomal P450-17alpha
property_label: IC50 (nM)
Write down the numeric answer in nM and omit the unit.

Completed entries (count: 4):
O=S(=O)(Oc1ccc(Cn2ccnc2)cc1)c1ccc(I)cc1 ... 65.1
O=S(=O)(Oc1ccc(Cn2ccnc2)cc1)c1ccc(C(F)(F)F)cc1 ... 291
Cc1ccc(S(=O)(=O)Oc2ccc(Cn3ccnc3)cc2)cc1 ... 230
O=S(=O)(Oc1ccc(Cn2ccnc2)cc1)c1ccc(Cl)cc1 ... 98.7

Asked: // returns reported IC50 for input `O=[N+]([O-])c1ccc(S(=O)(=O)Oc2ccc(Cn3ccnc3)cc2)cc1`
Given back: 85
